assay: Pharmacokinetics of methotrexate in minipig plasma after subcutaneous injection with autoinjector or needle/syringe; conditions: female, Gottingen, minipig, plasma, sc, 12.5 mg, AUC(0-t), Female; Autoinjector, Day 8; individual animals
OBSERVABLE: AUC(0-t) (ng·h/mL)
# value in ng·h/mL; strip the unit string

Documented AUC(0-t) of CN(Cc1cnc2nc(N)nc(N)c2n1)c1ccc(C(=O)N[C@@H](CCC(=O)O)C(=O)O)cc1 [Methotrexate] : 2500

###

assay: Pharmacokinetics of methotrexate in minipig plasma after subcutaneous injection with autoinjector or needle/syringe; settings: female, Gottingen, minipig, plasma, sc, […], Tmax; Syringe, Dose Level 12.5; individual animals
OBSERVABLE: Tmax (min)
# value in min; strip the unit string

Documented Tmax of CN(Cc1cnc2nc(N)nc(N)c2n1)c1ccc(C(=O)N[C@@H](CCC(=O)O)C(=O)O)cc1 [Methotrexate] : 15

###

assay: Pharmacokinetics of methotrexate in minipig plasma after subcutaneous injection with autoinjector or needle/syringe; settings: male, Gottingen, minipig, plasma, sc, […], Tmax; Syringe, Dose Level 12.5; individual animals
OBSERVABLE: Tmax
Write the quantity with the unit trailing the number.

Documented Tmax of CN(Cc1cnc2nc(N)nc(N)c2n1)c1ccc(C(=O)N[C@@H](CCC(=O)O)C(=O)O)cc1 [Methotrexate] : 15 min

###

experiment: Pharmacokinetics of methotrexate in minipig plasma after subcutaneous injection with autoinjector or needle/syringe; settings: male, Gottingen, minipig, plasma, sc, 12.5 mg, AUC(0-t), Male; Needle/Syringe, Day 8; individual animals
OBSERVABLE: AUC(0-t)
Write the quantity with the unit trailing the number.

Documented AUC(0-t) of CN(Cc1cnc2nc(N)nc(N)c2n1)c1ccc(C(=O)N[C@@H](CCC(=O)O)C(=O)O)cc1 [Methotrexate] : 2.46 µg·h/mL

###

assay: Pharmacokinetics of methotrexate in minipig plasma after subcutaneous injection with autoinjector or needle/syringe; conditions: male, Gottingen, minipig, plasma, sc, […], T½; Auto injector, Dose Level 12.5; individual animals
OBSERVABLE: half-life (h)
# value in h; strip the unit string

Documented half-life of CN(Cc1cnc2nc(N)nc(N)c2n1)c1ccc(C(=O)N[C@@H](CCC(=O)O)C(=O)O)cc1 [Methotrexate] : 1.95

###

test: Pharmacokinetics of methotrexate in minipig plasma after subcutaneous injection with autoinjector or needle/syringe; settings: female, Gottingen, minipig, plasma, sc, […], T½; Syringe, Dose Level 12.5; Mean
OBSERVABLE: half-life (h)
# value in h; strip the unit string

Documented half-life of CN(Cc1cnc2nc(N)nc(N)c2n1)c1ccc(C(=O)N[C@@H](CCC(=O)O)C(=O)O)cc1 [Methotrexate] : 3.39

###

experiment: Pharmacokinetics of methotrexate in minipig plasma after subcutaneous injection with autoinjector or needle/syringe; details: female, Gottingen, minipig, plasma, sc, […], Tmax; Auto injector, Dose Level 12.5; individual animals
OBSERVABLE: Tmax (min)
# value in min; strip the unit string

Documented Tmax of CN(Cc1cnc2nc(N)nc(N)c2n1)c1ccc(C(=O)N[C@@H](CCC(=O)O)C(=O)O)cc1 [Methotrexate] : 15

###

test: Pharmacokinetics of methotrexate in minipig plasma after subcutaneous injection with autoinjector or needle/syringe; details: male, Gottingen, minipig, plasma, sc, […], Tmax; Syringe, Dose Level 12.5; Median value
OBSERVABLE: Tmax (min)
# value in min; strip the unit string

Documented Tmax of CN(Cc1cnc2nc(N)nc(N)c2n1)c1ccc(C(=O)N[C@@H](CCC(=O)O)C(=O)O)cc1 [Methotrexate] : 15

All values here come from patent US12357642B2.
